TARGET: T1, MAZ-GST (UniProt P56270 1-477)
T1 sequence: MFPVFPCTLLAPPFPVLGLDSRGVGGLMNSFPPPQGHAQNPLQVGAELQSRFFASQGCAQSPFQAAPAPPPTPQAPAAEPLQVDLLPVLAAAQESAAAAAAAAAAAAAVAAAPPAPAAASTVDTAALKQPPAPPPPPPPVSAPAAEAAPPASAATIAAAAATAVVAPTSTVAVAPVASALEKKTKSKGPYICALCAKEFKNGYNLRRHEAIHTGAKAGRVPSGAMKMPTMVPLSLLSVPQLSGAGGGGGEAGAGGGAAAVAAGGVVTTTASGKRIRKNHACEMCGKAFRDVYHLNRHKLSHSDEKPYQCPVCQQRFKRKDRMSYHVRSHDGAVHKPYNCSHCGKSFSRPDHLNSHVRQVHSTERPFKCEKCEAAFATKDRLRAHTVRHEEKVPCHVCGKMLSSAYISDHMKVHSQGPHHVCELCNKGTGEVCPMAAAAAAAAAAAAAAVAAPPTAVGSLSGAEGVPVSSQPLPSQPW
PROCEDURE_DETAILS: double-filter binding; 100 mM KCl, 50 uM Zn acetate; Hill n = 1.4 ± 0.2; EMSA/filter: 20 mM Tris-HCl pH 8, 8% glycerol, 100 uM MgCl2, 50 uM Zn acetate, 1 mM DTT, 2.5 ng/ul poly dIdC, 1 mM Na3VO4, 5 mM NaF, KCl as stated (100 mM for filter binding); EMSA gel 20 C, filter 4 C 30 min; FRET: 50 mM Tris-HCl pH 7.4, 50 uM Zn acetate, 50 mM KCl, 37 C
STUDY_CONDITIONS: protein: recombinant; tags: GST; label: 32P; parallel intramolecular G4

{"BINDER": "CGGGGCGGGGCGGGGGCGGGGGCG (structured_DNA) [hras-2 quadruplex]", "Kd (nM)": 207}
